Each entry below carries its reported kon.
- measured on: T1, histidine-tagged human SIRPA v1 (Novoprotein) (human, UniProt P78324 31-370, limits assumed)
- T1 construct: bought, soluble; also called huSIRPA; soluble huSIRPA; not shown: histidine tag
- experiment notes: BLI (Octet), antibody on anti-human IgG Fc sensor, His-huSIRPA in solution, single-curve 1:1 fit
readout label: kon (M⁻¹ s⁻¹)

| binder | readout number |
| --- | --- |
| 3F9-15 (antibody, human IgG1, V domains shown, also called mAb 3F9-15) VH: EVQLLESGGGLVQPGGSLRLSCAASGFTFSSYAMSWVRQAPGKGLEWVATISEYGGSYTYYAESVKGRFTISRDNSKNTLYLQMNSLRAEDTAVYYCARPPYDDYYGGFRYWGQGTLVTVSS VL: DIQLTQSPSSLSASVGDRVTITCRASKSVSSGGYSYMHWYQQKPGKAPKLLIYLASNLESGVPSRFSGSGSGTDFTLTISSVQPEDFATYYCQHNRELPATFGQGTKLEIK | 57600 |
| 3F9-17 (antibody, human IgG1, V domains shown, also called mAb 3F9-17) VH: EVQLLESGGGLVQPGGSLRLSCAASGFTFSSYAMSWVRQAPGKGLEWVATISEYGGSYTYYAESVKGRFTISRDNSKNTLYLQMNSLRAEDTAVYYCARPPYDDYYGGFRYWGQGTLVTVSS VL: DIQLTQSPSSLSASVGDRVTITCRASKSVSSGGYSYMHWYQQKPGKAPKLLIYLASNLESGVPSRFSGSGSGTDFTLTISSVQPEDFATYYCQHNRELPWTFGQGTKLEIK | 140000 |
| 3F9-13 (antibody, human IgG1, V domains shown, also called mAb 3F9-13) VH: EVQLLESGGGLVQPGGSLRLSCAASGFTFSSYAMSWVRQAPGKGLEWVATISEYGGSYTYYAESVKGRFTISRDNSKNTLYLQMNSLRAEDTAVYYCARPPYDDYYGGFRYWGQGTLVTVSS VL: DIQLTQSPSSLSASVGDRVTITCRASKSVSSGGYSYMHWYQQKPGKAPKLLIYLASNLESGVPSRFSGSGSGTDFTLTISSVQPEDFATYYCQHNRELPTTFGQGTKLEIK | 146000 |
| 3F9-16 (antibody, human IgG1, V domains shown, also called mAb 3F9-16) VH: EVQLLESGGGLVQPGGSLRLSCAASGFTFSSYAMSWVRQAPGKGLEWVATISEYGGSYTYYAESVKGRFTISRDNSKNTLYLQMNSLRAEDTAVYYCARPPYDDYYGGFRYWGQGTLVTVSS VL: DIQLTQSPSSLSASVGDRVTITCRASKSVSSGGYSYMHWYQQKPGKAPKLLIYLASNLESGVPSRFSGSGSGTDFTLTISSVQPEDFATYYCQHNRELPGTFGQGTKLEIK | 119000 |
| 3F9-8 (antibody, human IgG1, V domains shown, also called mAb 3F9-8) VH: EVQLLESGGGLVQPGGSLRLSCAASGFTFSSYAMSWVRQAPGKGLEWVATISEYGGSYTYYAESVKGRFTISRDNSKNTLYLQMNSLRAEDTAVYYCARPPYDDYYGGFAYWGQGTLVTVSS VL: DIQLTQSPSSLSASVGDRVTITCRASKSVSSGGYSYMHWYQQKPGKAPKLLIYLASNLESGVPSRFSGSGSGTDFTLTISSVQPEDFATYYCQHNRELPGTFGQGTKLEIK | 76600 |

Source of measurements: patent US20240301071A1
